Target: Ephrin type-B receptor 4 (Homo sapiens, UniProt P54760)
Sequence (P54760 whole entry): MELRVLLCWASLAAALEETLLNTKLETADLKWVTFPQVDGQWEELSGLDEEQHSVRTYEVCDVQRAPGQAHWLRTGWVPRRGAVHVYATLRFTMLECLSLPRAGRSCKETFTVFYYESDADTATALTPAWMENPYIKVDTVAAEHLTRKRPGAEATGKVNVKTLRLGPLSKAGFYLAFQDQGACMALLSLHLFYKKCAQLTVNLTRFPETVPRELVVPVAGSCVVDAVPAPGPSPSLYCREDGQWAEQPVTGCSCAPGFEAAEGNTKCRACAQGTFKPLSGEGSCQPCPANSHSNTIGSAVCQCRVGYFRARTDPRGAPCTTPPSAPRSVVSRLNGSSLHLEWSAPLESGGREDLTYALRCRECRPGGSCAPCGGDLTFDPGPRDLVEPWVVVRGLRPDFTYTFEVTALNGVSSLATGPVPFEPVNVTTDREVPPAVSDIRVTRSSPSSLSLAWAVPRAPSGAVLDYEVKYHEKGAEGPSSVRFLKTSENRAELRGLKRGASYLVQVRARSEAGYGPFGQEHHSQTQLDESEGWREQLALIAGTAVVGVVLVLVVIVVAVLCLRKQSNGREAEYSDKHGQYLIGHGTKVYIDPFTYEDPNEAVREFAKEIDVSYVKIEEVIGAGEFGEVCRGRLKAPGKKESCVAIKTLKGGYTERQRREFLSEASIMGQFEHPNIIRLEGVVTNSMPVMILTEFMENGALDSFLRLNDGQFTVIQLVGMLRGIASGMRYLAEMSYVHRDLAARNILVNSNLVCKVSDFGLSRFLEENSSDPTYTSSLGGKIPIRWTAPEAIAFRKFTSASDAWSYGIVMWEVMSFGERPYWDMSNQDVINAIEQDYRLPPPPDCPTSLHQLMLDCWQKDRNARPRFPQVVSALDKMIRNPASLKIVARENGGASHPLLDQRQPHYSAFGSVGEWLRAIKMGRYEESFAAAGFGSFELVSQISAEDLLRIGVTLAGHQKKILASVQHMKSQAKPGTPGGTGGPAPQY
Test: Inhibition of recombinant human N-terminal His6-tagged EphB4 kinase domain (E605 to E890 residues) expressed in baculovirus using poly-AEKY as substrate after 150 mins in presence of gamma33P-ATP by liquid scintillation spectrometry
pIC50: −log10 of the molar value.
Hi there, I'd appreciate the recorded pIC50 for every entry that follows.

Identify the reported pIC50 for the following entry. CCC1(C)CN(C)CC(COc2cc3ncnc(Nc4ccc(Cl)c(Cl)c4)c3cc2OC)O1 (centres undefined)
6.00 to 7.30

Identify the reported pIC50 for the following entry. COc1cc2c(Nc3ccc(Cl)c(Cl)c3N3CCN(C)CC3)ncnc2cc1O[C@H]1CO[C@H]2[C@@H]1OC[C@@H]2F
4.70 to 6.00

Identify the reported pIC50 for the following entry. COc1cc2c(Nc3cc(Cl)c(Cl)cc3F)ncnc2cc1OC[C@H]1CN2CCOC[C@H]2CO1
6.00 to 7.30

Identify the reported pIC50 for the following entry. COc1cc2c(Nc3ccc(Cl)c(Cl)c3)ncnc2cc1OCC1CN(C(=O)C2CCCC2)CCO1 (centres undefined)
> 7.30

Identify the reported pIC50 for the following entry. COc1cc2c(Nc3ccc(Cl)c(Cl)c3)ncnc2cc1OCC1CN(S(=O)(=O)Cc2ccccc2)CCO1 (centres undefined)
6.00 to 7.30

Identify the reported pIC50 for the following entry. COc1cccc(CC(=O)N2CCOC(COc3cc4ncnc(Nc5ccc(Cl)c(Cl)c5)c4cc3OC)C2)c1 (centres undefined)
6.00 to 7.30

Identify the reported pIC50 for the following entry. COCCOc1cc2c(Nc3ccc(Cl)c(Cl)c3)ncnc2cc1OCC1CNCCO1 (centres undefined)
> 7.30

Identify the reported pIC50 for the following entry. CC(C)Oc1cc2c(Nc3ccc(Cl)c(Cl)c3)ncnc2cc1OCC1CN(C)CCO1 (centres undefined)
> 7.30

Identify the reported pIC50 for the following entry. COc1cc2c(Nc3ccc(Cl)c(Cl)c3)ncnc2cc1OCc1csc(C2CCCN(C)C2)n1 (centres undefined)
6.00 to 7.30
